These data points were gathered from patent US20140179896A1.

Below, each entry is listed with its recorded Binding to 1 nM KDR, %.
Target: T1, human vascular endothelial growth factor receptor-2 Fc chimera (KDR-Fc) (human, UniProt P35968 20-764)
T1 construct: range 1-764; also called human VEGFR-2; VEGF-R2-Fc; not shown: human IgG1 Fc
T1 sequence (P35968 20-764 limits assumed, change not shown, form in doubt): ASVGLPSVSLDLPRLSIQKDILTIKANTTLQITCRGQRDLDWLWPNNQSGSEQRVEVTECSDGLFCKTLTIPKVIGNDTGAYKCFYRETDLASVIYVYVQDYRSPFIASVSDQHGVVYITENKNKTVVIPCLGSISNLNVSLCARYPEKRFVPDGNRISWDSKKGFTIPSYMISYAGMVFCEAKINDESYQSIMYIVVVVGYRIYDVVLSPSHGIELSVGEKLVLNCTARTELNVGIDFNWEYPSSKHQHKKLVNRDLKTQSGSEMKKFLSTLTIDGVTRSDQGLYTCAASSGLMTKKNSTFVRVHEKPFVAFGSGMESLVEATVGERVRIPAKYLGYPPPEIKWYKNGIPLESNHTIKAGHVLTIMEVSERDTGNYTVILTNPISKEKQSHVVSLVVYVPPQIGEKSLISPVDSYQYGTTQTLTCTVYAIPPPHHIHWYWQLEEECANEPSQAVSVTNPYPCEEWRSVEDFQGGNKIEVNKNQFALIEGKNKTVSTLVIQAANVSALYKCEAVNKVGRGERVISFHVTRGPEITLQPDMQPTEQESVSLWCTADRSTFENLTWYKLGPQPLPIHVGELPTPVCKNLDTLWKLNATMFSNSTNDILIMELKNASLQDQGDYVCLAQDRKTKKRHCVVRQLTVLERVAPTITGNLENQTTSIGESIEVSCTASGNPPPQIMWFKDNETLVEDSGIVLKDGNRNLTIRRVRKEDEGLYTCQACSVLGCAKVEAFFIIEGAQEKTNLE
Protocol Text: radioactive equilibrium binding, 1 nM KDR-Fc
Experimental: To prepare ³⁵S-labeled binding proteins for analysis, mRNA was prepared as described above for RNA-protein fusion production but the linker ligation step was omitted. […] 50 μA of the reaction mixture and elution were dried onto a LumaPlate-96 (Packard) and the amount of ³⁵S on the plate was measured using a TopCount NXT instrument (Packard). […] Data was analyzed using the GraphPad Prizm software (GraphPad Software, Inc, San Diego, Calif.), fitted using a one site, non-linear binding equation.

Binder	Binding to 1 nM KDR, %, %
4′D6 PR4 (designed binder, Del 1-8) EVVAATPTSLLISWRHPHFPTRYYRITYGETGGNSPVQEFTVPLQPPTATISGLKPGVDYTITGYAVTMAQNDHELMTPISINYRT	14
4H5 PR3 (designed binder, Del 1-8) EVVAATPTSLLISWRHPHFPTRYYRITYGETGGNSPVQEFTVPLQPPTATISGLKPGVDYTITGYAVTVAQNGHELITPISINYRT	14
K10 (designed binder, Del 1-8) EVVAATPTSLLISWRHPHFPTRYYRITYGETGGNSPVQEFTVPLQPPTATISGLKPGVDYTITGYAVTTGPNDRLLFVPISINYRT	33
